Provide the recorded GE-HTS (composite Z-score) for the entries that follow.
tested on: OXPHOS gene expression; type: cell-based, mouse; conditions: Conc 20 μM; normalized score vs mock-treated (DMSO) wells
Numbers only.

See these solved cases before continuing.
INSERT INTO assay_data (molecule, reported_endpoint, observed_measurement) VALUES
  ('COc1ccc(-c2coc3cc(O)cc(O)c3c2=O)cc1', 'GE-HTS (composite Z-score)', '−0.324'),
  ('COc1ccc(-c2cc(=O)c3c(O)cc(O[C@H]4O[C@H](CO[C@@H]5O[C@@H](C)[C@H](O)[C@@H](O)[C@H]5O)[C@@H](O)[C@H](O)[C@H]4O)cc3o2)cc1 [buddleoflavonoloside]', 'GE-HTS (composite Z-score)', 0.073),
  ('C[C@@H]1CC[C@H]2[C@](C)(CO)[C@@H](O)CC[C@]2(C)[C@@]12CC[C@@](CO)(CCO)O2', 'GE-HTS (composite Z-score)', 0.002),
  ('CC(=O)O[C@H]1C[C@@H](OC(C)=O)C(C)(C)[C@@H]2C[C@@H](OC(C)=O)[C@@]3(C)C4=CC(=O)O[C@@H](c5ccoc5)[C@]4(C)CC[C@@H]3[C@@]12C', 'GE-HTS (composite Z-score)', '−1.026');

Record GE-HTS (composite Z-score) per entry; entries follow.
1. COc1c(O)cc2c(-c3ccccc3)cc(=O)oc2c1OC
2. COc1ccc([C@H]2COc3cc(O)ccc3C2)c(OC)c1O
3. CC(=O)O[C@@H]1c2c(ccc3ccc(=O)oc23)OC(C)(C)[C@@H]1OC(=O)CC(C)C [dihydrosamidin, reference compound]

Response given:
1. 0.624
2. −0.345
3. 1.854

###

system: cellular dehydrogenase activity; details: Conc 20 μM; normalized score vs mock-treated (DMSO) wells
reported endpoint: MTT (composite Z-score)

See these solved cases before continuing.
INSERT INTO measurements (molecule, experimental_target, observed_measurement) VALUES
  ('COc1cc(OC)c2c(c1)OC(c1ccccc1)CC2=O (centres unmarked)', 'cellular dehydrogenase activity', '−0.694'),
  ('COC(=O)C[C@H]1C(C)(C)C2(O)OC34CC2C(=O)[C@]1(C)C3CC[C@]1(C)C4=CC(=O)O[C@H]1c1ccoc1 (stereo partly drawn) [8beta-hydroxycarapin, 3,8-hemiacetal]', 'cellular dehydrogenase activity', 0.204),
  ('CC1(C)C=CC(=O)[C@@]2(C)C1CC(=O)[C@]1(C)C2CC[C@@]2(C)[C@H](c3ccoc3)OC(=O)C3OC321 (some centres unmarked)', 'cellular dehydrogenase activity', '−0.791'),
  ('O=c1cc(-c2cc(O)c(O)c(O)c2)oc2cc(O)cc(O)c12 [hieracin, reference compound]', 'cellular dehydrogenase activity', '−0.557');

Record MTT (composite Z-score) per entry; entries follow.
1. CC(=O)O[C@@H]1CC2C(C)(C)[C@H](O)C=C[C@]2(C)C2CC[C@]3(C)C(=CC(=O)O[C@H]3c3ccoc3)[C@@]21C (stereo partly drawn) [3-alpha-hydroxydeoxygedinin]
2. C/C=C(/C)C(=O)O[C@H]1Cc2c(ccc3ccc(=O)oc23)OC1(C)C
3. CC(C)CCC[C@@H](C)[C@H]1CC[C@H]2[C@@H]3C[C@@H](O)[C@@]4(O)C[C@@H](O)CC[C@]4(C)[C@H]3CC[C@]12C
4. CC(=O)Oc1cccc2c1C(=O)c1c(OC(C)=O)cc(C(=O)O)cc1C2=O
5. CC[C@@]1(O)C(=O)OCc2c1cc1n(c2=O)Cc2cc3cc(O)ccc3nc2-1 [10-hydroxycamtothecin]
6. CC1=CC(=O)C2=C(C)C[C@H](O)[C@@H]3[C@H](OC(=O)[C@H]3C)[C@H]12

Response given:
−0.319
−0.359
0.120
−0.608
−2.588
−1.268

Record MTT (composite Z-score) per entry; entries follow.
1. CC(=O)O[C@H]1CC[C@]2(C)C3=CC(=O)[C@]4(C)[C@@H]5[C@H](C[C@H]4[C@@H]3CC[C@H]2C1)O[C@@]1(OCC(C)CC1Br)[C@H]5C (some centres unmarked)
2. CC(=O)O[C@@H]1CC2C(C)(C)C(=O)C3OC3[C@]2(C)C2CC[C@@]3(C)[C@H](c4ccoc4)OC(=O)C4OC43[C@@]21C (some centres unmarked)
3. C=C[C@@](C)(O)CC[C@H]1C(=C)C[C@H](O)[C@H]2C(C)(C)CCC[C@]12C
4. COc1cc(/C=C/CO)ccc1O
5. CS(=O)(=O)CCCCN=C=S
6. COC1=C(OC)C(=O)C(C/C=C(\C)CC/C=C(\C)CC/C=C(\C)CC/C=C(\C)CC/C=C(\C)CC/C=C(\C)CC/C=C(\C)CC/C=C(\C)CC/C=C(\C)CCC=C(C)C)=C(C)C1=O

Response given:
−2.231
−1.657
−0.221
−1.094
−3.551
−1.758

Record MTT (composite Z-score) per entry; entries follow.
1. CC(=O)OCC(=O)[C@@]1(O)CC[C@H]2[C@@H]3C[C@H](C)C4=CC(=O)C=C[C@]4(C)[C@H]3[C@@H](O)C[C@@]21C [6alpha-methylprednisolone acetate]
2. COc1cc(O)c2c(=O)cc(-c3ccc(O)cc3)oc2c1
3. COc1ccc2c(c1)OCC(Cc1ccc(OC)c(OC)c1)C2=O (centres unmarked)
4. C=C1C2CC[C@@]3(C)[C@H](c4ccoc4)OC(=O)C[C@]13O[C@H]1CC(=O)C(C)(C)[C@H](C(OC(C)=O)C(=O)OC)[C@@]21C (some centres unmarked)

Response given:
["−1.192", "−2.090", "−1.507", "−0.663"]
